# Tested on: LU-1 (lung)
# method.description: Cytotoxicity against cultured LU-1 cells (SRB)
# Assay type: cell-based, human
# run.parameters: Homo sapiens, Lu1, 72 h; Method A, sample dissolved in DMSO; three days incubation; read-out: ED50 LU-1
Exercise: for every item that follows, state its recorded IC50.
Numbers only, in µg/mL.

Check out these entries, answers already filled in.
INSERT INTO results (compound, quantity_measured, measurement) VALUES
  ('Cc1c2ccncc2c(C)c2c1[nH]c1ccccc12 [Ellipticine]', 'IC50', 0.02),
  ('CC[C@]1(O)C[C@H]2CN(CCc3c([nH]c4ccccc34)[C@@](C(=O)OC)(c3cc4c(cc3OC)N(C=O)[C@H]3[C@@](O)(C(=O)OC)[C@H](OC(C)=O)[C@]5(CC)C=CCN6CC[C@]43[C@@H]65)C2)C1 [Vincristine]', 'IC50', 0.05),
  ('COC(=O)C[C@](O)(CCCC(C)(C)O)C(=O)O[C@@H]1C(OC)=C[C@]23CCCN2CCc2cc4c(cc2[C@H]13)OCO4 [Homoharringtonine]', 'IC50', 0.03);

Would you kindly look at the next entry?
Qu. Give its IC50 value. Item: CC[C@]1(O)C[C@@H]2CN(CCc3c([nH]c4ccccc34)[C@@](C(=O)OC)(c3cc4c(cc3OC)N(C)[C@H]3[C@@](O)(C(=O)OC)[C@H](OC(C)=O)[C@]5(CC)C=CCN6CC[C@]43[C@@H]65)C2)C1 [Vinblastine]
Ans. 0.02

----------
# Tested on: HT-1080 (sarcoma)
# method.description: Cytotoxicity against cultured HT-1080 cells (SRB)
# Assay type: cell-based, human
# run.parameters: Homo sapiens, HT-1080, 72 h; Method A, sample dissolved in DMSO; three days incubation; read-out: ED50 HT-1080
quantity.measured: IC50 (µg/mL)
One number for each entry, in µg/mL.

Check out these entries, answers already filled in.
INSERT INTO measurements (smiles, endpoint_unit, measurement) VALUES
  ('CC[C@]1(O)C[C@H]2CN(CCc3c([nH]c4ccccc34)[C@@](C(=O)OC)(c3cc4c(cc3OC)N(C=O)[C@H]3[C@@](O)(C(=O)OC)[C@H](OC(C)=O)[C@]5(CC)C=CCN6CC[C@]43[C@@H]65)C2)C1', 'µg/mL', 0.02),
  ('CC[C@]1(O)C[C@@H]2CN(CCc3c([nH]c4ccccc34)[C@@](C(=O)OC)(c3cc4c(cc3OC)N(C)[C@H]3[C@@](O)(C(=O)OC)[C@H](OC(C)=O)[C@]5(CC)C=CCN6CC[C@]43[C@@H]65)C2)C1', 'µg/mL', 0.02);

Would you kindly look at the next entry?
Qu. Give its IC50 value. Item: CC[C@@]1(O)C(=O)OCc2c1cc1n(c2=O)Cc2cc3ccccc3nc2-1
Ans. 0.01

----------
# System: MEL-2 (melanoma)
# method.description: Cytotoxicity against cultured MEL-2 cells (SRB)
# Format: cell-based, human
# run.parameters: Homo sapiens, MEL2, 72 h, Method A, sample dissolved in DMSO; three days incubation; read-out: ED50 MEL-2
# Protocol: Cytotoxicity of the crude extracts and purified compounds was determined in a number of cultured human cancer cell lines. Table 1 sets forth the various types of cancer cells evaluated using Method A. The cells were cultured in appropriate media and under standard conditions. […] On the day of the assay, the cells were harvested by trypsinization, counted, diluted in media, and added to 96-well plates containing test compounds dissolved in DMSO. […]
Output y for records whose IC50 is lower than 0.04 µg/mL, n for records at or above 0.04 µg/mL.

Illustrative cases are given below, each with its answer.
INSERT INTO assay_data (smiles, assigned_label) VALUES
  ('CC(=O)O[C@H]1C(=O)[C@@]2(C)[C@H]([C@H](OC(=O)c3ccccc3)[C@]3(O)C[C@H](OC(=O)[C@H](O)[C@@H](NC(=O)c4ccccc4)c4ccccc4)C(C)=C1C3(C)C)[C@]1(OC(C)=O)CO[C@@H]1C[C@@H]2O', 'n'),
  ('CC[C@]1(O)C[C@H]2CN(CCc3c([nH]c4ccccc34)[C@@](C(=O)OC)(c3cc4c(cc3OC)N(C=O)[C@H]3[C@@](O)(C(=O)OC)[C@H](OC(C)=O)[C@]5(CC)C=CCN6CC[C@]43[C@@H]65)C2)C1', 'y'),
  ('CC[C@]1(O)C[C@@H]2CN(CCc3c([nH]c4ccccc34)[C@@](C(=O)OC)(c3cc4c(cc3OC)N(C)[C@H]3[C@@](O)(C(=O)OC)[C@H](OC(C)=O)[C@]5(CC)C=CCN6CC[C@]43[C@@H]65)C2)C1', 'y'),
  ('Cc1c2ccncc2c(C)c2c1[nH]c1ccccc12', 'n');

Qu. Is IC50 of CC[C@@]1(O)C(=O)OCc2c1cc1n(c2=O)Cc2cc3ccccc3nc2-1 strictly below 0.04 µg/mL?
Ans. y
